Recorded pKd for the following binders
Biological target: T1, human SIRPα v6-Fc (SIRPα6 extracellular domain fused to human IGHG1_Fc) (human, UniProt P78324 31-373; P0DOX5 223-449 = IgG part)
T1 construct: as m38; also called V6 (e.g. SIRPα6)
Experiment: BLI Octet, antigen-Fc on biosensor;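 also: antigen captured on the biosensor tip and then immersed in solutions of the test antibodies, which act as the analyte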
pKd: −log10 of the molar value.

binder	pKd
SIRPAB-13 (antibody, human IgG1, kappa, V domains shown) VH: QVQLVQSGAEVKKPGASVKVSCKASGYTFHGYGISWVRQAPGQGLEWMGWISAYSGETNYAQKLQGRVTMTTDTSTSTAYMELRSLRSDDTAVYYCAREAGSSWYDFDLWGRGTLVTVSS VL: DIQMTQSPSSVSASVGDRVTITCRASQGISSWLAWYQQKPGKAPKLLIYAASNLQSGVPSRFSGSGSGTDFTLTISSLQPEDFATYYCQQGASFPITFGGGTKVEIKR	8.57
SIRPAB-1 (antibody, human IgG1, kappa, V domains shown) VH: QVQLQESGPGLVKPSQTLSLTCTVSGGSISSGGYYWSWIRQHPGKGLEWIGSIYYSGSTYYNPSLKSRVTISVDTSKNQFSLKLSSVTAADTAVYYCAREGYHSGMDVWGQGTTVTVSS VL: DIQMTQSPSSLSASVGDRVTITCQASQDISNYLNWYQQKPGKAPKLLIYDASNLATGVPSRFSGSGSGTDFTFTISSLQPEDIATYYCQQFAYLPWTFGGGTKVEIKR	7.26
SIRPAB-9 (antibody, human IgG1, kappa, V domains shown) VH: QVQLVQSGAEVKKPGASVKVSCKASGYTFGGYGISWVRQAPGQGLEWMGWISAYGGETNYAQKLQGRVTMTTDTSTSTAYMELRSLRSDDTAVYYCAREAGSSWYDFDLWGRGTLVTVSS VL: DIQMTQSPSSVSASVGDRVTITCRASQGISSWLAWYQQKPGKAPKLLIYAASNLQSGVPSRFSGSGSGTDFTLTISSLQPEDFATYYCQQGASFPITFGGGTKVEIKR	8.81

The measurements presented in this section are drawn from patent US20200102387A1.
